Where do the numbers come from? From patent EP4644419A1.

Target: T1, human CD112R antigen protein huCD112R-His (Acro Biosysterm, PVG-H52H4) (human, UniProt Q6DKI7 41-171)
T1 construct: purchased; also called human antigen protein; not shown: His tag
T1 sequence (looked up): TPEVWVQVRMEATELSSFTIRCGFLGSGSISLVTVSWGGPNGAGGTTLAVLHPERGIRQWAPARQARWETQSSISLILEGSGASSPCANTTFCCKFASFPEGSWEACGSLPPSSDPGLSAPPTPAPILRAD
Experiment: ELISA, huCD112R-His coated on plate
API: label(entry) gives True if the entry's EC50 is strictly smaller than 0.06 nM; on equality or larger values it gives False.

INSERT INTO assay_data (binder, cat) VALUES
  ('C3 (antibody, human IgG1, kappa, V domains shown) VH: QVQLQQSGPELVKPGASVKISCRSSGYTFTDYYINWVKQRPGQGLEWIGWIFPGSDYTYYNEKFKGKATLTVDKSSTTAYMLLSSLTSEDSAVYFCARDGGLRGPFDYWGQGTTLTVSS VL: DIQMTQSPSSLSASLGGKVTITCKASQDINKYIAWYQQKPGKGPRLLIHYTSTLQPGIPSRFSGSGSGRNSSFSISNLEPEDIATYYCLQYDNLHTFGGGTKLEIKR', 'True'),
  ('C110 (antibody, human IgG1, kappa, V domains shown) VH: EVQLQQSGAELAKPGASVKLSCTVSGFNIKDTYIHWVKQRPEQGLEWIGGIDPAIGNTVSASKFQDKATITADTSSSTAYMQLSSLTSGDTAVYYCARERVHSNTLYYAMDYWGQGTSVTVSS VL: DIVLTQSPASLAVSLGQRATISCRASKSVSISGYSYMHWYQQKPGQPPKLLIYLASNLESGVPARFSGSGSGTDFTLNIHPVEEEDAATYYCQHSRELPPTFGGGTKLEIKR', 'True'),
  ('C143 (antibody, human IgG1, kappa, V domains shown) VH: EVQLVESGGGLVKPGGSLKLSCAASGFTFSNFAMSWVRQTPAMRLESVATIVNGGINTYYPDTVKGRFTVSRDNAKNTLYLQMSSLRSEDTAIYYCARHDDFLYYAMDYWGQGTSVTVSS VL: QIVLTQSPAIMSASPGEKVTMTCSASSSVNYMFWYQQKPGSSPRLLIYDTSNLASGVPVRFSGSGSGTSYSLTISRLEAEDAATYYCQQWTSYPLTFGAGTKLDLKR', 'True'),
  ('C122 (antibody, human IgG1, kappa, V domains shown) VH: EVQLQQSGPEVVKPGASVKISCKASGNTFTDYFINWVKQRHGKSLEWIGDVNPDNGGTNYNQKFKGKATLTVDKSSGTAFMGLRSLTSEDSAVYYCATLFFDSWGQGTTLTVSS VL: DIVMTQSPSSLNVSAGEKVTMSCKSSQSLLNSGNQKNYLAWYQQKPGQPPKLLIYGASTRESGVPDRFTGSGSGTDFTLTISSVQAEDLALYYCQNAHSSPYTFGGGTKLEIKR', 'True'),
  ('C55 (antibody, human IgG1, kappa, V domains shown) VH: EVQLQQSGPELVKPGASVKISCKASGYTFTDYYMSWVKQSHGKSLEWIGDVNPNNGDTSYNQKFKGKATLTVDKSSSTAYMELRSLTSEDSAVYYCAASGLPYVLMDYWGQGTSVTVSS VL: DIQMTQSPASLSASVGETVTITCRASENINSYLAWYQQKQGKSPQLLVYNTKTLTEDVPSRFSGSGSGTQFSLKINSLQPEDFGSYYCQHHYGTPLTFGGGTKLELKR', 'True'),
  ('C33 (antibody, human IgG1, kappa, V domains shown) VH: QVQLQQSGPELVKPGASVKISCKASGYTFTDYYINWVKQRPGQGLEWIGWIFPGSGSTYYNEKFKGKATPTVDKYSSTAYMLLSSLTSEDSAVYFCAREDYFDRGDCWGQGTSVTVSS VL: QIVLTQSPAIMSASPGEKVTMTCSASSSINYMHWYQQKPGTSPKRWIYDTSKLASGVPARFSGSGSGTSYSLTISSMEAEDAATYYCHQRSSYPFTFGSGTKLEIKR', 'False'),
  ('C18 (antibody, human IgG1, kappa, V domains shown) VH: EVQLVESGGGLVKPGGSLKLSCAASGFTFSDYYMYWVRQTPEKRLEWVATISDGGGFIYYPDSVKGRFTISRDNDRNSLYLLMSSLKSEDTAMYFCGREDLWGQGTSVTVSS VL: DIQMTQSPSSLSASLGERVSLTCRASQDIGRSLNWLQQGPDGTVKRLIYATSRLDSGVPTRFSGSRSGSDYSLTISSLESEDFVDYYCLQYASFPYTFGGGTKLEIKR', 'False'),
  ('C152 (antibody, human IgG1, kappa, V domains shown) VH: QVQLQQSGTILARPGASVKMSCRASDYTFTDYWIQWIKQRPGQGLEWIGAIFPENGDTRYTQKFKGRATLTADKSSSTAYMQVNSLTSEDSAVYYCATFINYVDYWGQGTTLTVSS VL: QIVLIQSPAIMSASPGEKVTMTCSASSSVNNIHWYQQKSGTSPKRWIYDTTKLTSGVPARFSGSGSGTSYSLTISSMEAEDAATYYCQQWNINPYTFGGGTKLEIKR', 'False');
